Biological target: Prostaglandin G/H synthase 2 (Homo sapiens, UniProt P35354);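 also: recombinant enzyme produced in baculovirus-infected Sf21 cells, arachidonic acid substrate, PGE2 output quantified by LC-MS after 45 min, compounds preincubated 10 min beforehand, lower PGE2 means inhibition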
Sequence (P35354 whole entry): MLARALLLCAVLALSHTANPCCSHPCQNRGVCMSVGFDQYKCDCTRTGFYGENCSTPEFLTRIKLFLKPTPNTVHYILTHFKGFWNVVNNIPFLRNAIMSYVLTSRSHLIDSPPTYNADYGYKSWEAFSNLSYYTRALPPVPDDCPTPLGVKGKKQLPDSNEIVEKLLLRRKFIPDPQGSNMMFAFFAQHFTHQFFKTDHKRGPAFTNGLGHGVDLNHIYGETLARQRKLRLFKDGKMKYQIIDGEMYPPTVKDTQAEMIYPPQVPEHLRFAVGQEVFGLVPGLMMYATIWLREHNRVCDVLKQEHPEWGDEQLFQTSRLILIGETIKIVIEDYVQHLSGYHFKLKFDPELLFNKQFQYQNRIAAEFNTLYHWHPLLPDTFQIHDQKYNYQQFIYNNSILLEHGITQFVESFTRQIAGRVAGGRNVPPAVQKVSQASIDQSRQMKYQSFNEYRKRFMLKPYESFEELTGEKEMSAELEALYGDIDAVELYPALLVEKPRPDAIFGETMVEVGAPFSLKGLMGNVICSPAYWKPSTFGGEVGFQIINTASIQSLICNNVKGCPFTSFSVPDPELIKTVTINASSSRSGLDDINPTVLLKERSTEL
Assay: biochemical
Type: cell-based, Sf21
Settings: read-out: IC50
Description: Inhibition of human recombinant COX2 expressed in baculovirus infected sf21 cells assessed as decrease in PGE2 formation using arachidonic acid as substrate preincubated for 10 mins followed by substrate addition measured after 45 mins by LC-MS analysis
List of IC50 values.

Please review the following examples before continuing.
- compound: "CC1(C)CC[C@]2(C)CC[C@]3(C)C(=CC(=O)[C@@H]4[C@@]5(C)CC[C@H](O)C(C)(C)[C@@H]5CC[C@]43C)[C@@H]2C1"
  IC50: "> 40 µM"
- compound: "C[C@H]1[C@H](C)CC[C@]2(C)CC[C@]3(C)C(=CC[C@@H]4[C@@]5(C)CC[C@@H](O)[C@](C)(C(=O)O)[C@@H]5CC[C@]43C)[C@H]12 [BOSWELLIC ACID]"
  IC50: "> 40 µM"

In the following, a different compound is considered.
Q: // IC50 lookup, key: `CC1(C)[C@@H](O)CC[C@]2(C)[C@H]3CC=C4[C@@H]5C[C@@](C)(C(=O)O)CC[C@]5(C)CC[C@@]4(C)[C@]3(C)CC[C@@H]12`
Result: > 40 µM

---

target: Polyunsaturated fatty acid 5-lipoxygenase (Homo sapiens, UniProt P09917); assay: Inhibition of human recombinant 5-LOX expressed in insect cells assessed as decrease in production of 5-HPETE and 5-HETE using arachidonic acid as substrate preincubated for 5 mins followed by substrate addition measured after 20 mins in dark by ferric ion oxidation-xylenol orange method; conditions: read-out: IC50
Sequence (P09917 whole entry): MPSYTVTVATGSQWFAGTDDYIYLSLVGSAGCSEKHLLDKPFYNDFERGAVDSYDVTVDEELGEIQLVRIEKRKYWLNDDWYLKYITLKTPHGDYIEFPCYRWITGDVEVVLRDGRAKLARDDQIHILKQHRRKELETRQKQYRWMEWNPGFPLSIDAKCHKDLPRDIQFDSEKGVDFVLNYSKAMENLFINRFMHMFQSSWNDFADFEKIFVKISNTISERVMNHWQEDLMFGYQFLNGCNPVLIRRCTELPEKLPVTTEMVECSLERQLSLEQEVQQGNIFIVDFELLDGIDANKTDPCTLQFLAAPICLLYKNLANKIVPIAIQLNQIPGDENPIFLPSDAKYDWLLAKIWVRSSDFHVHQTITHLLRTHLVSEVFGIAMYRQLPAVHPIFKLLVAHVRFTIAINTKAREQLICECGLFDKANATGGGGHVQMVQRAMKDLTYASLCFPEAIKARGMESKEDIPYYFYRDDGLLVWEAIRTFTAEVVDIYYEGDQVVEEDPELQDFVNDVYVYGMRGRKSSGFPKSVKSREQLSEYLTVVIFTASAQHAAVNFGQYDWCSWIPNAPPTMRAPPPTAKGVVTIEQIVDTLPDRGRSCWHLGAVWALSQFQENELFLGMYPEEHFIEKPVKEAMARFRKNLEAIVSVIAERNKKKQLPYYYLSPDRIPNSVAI
List of IC50 values.

- item.smiles: "CC1(C)[C@@H](O)CC[C@]2(C)[C@H]3C(=O)C=C4[C@@H]5C[C@@](C)(CO)CC[C@]5(C)CC[C@@]4(C)[C@]3(C)CC[C@@H]12"
  reported.measurement: "25.7 µM"

Q: // IC50 lookup, key: `CC1(C)CC[C@]2(C)CC[C@]3(C)C(=CC[C@@H]4[C@@]5(C)CC[C@H](O)[C@](C)(CO)[C@@H]5CC[C@]43C)[C@@H]2C1`
Result: 30.6 µM

Q: // IC50 lookup, key: `CC1(C)CC[C@]2(C(=O)O)CC[C@]3(C)C(=CC[C@@H]4[C@@]5(C)CC[C@H](O)[C@@](C)(C(=O)O)[C@@H]5CC[C@]43C)[C@@H]2C1`
Result: > 40 µM

Q: // IC50 lookup, key: `C[C@H]1[C@H](C)CC[C@]2(C(=O)O)CC[C@]3(C)C(=CC[C@@H]4[C@@]5(C)C[C@@H](O)[C@H](O)[C@@](C)(CO)[C@@H]5CC[C@]43C)[C@H]12`
Result: > 40 µM

Q: // IC50 lookup, key: `CC1(C)CC[C@]2(C)CC[C@]3(C)C(=CC[C@@H]4[C@@]5(C)CC[C@H](O)C(C)(C)[C@@H]5CC[C@]43C)[C@@H]2C1`
Result: > 40 µM

Q: // IC50 lookup, key: `CC(=O)O[C@@H]1CC[C@@]2(C)[C@@H](CC[C@]3(C)[C@@H]2CC=C2[C@@H]4[C@@H](C)[C@H](C)CC[C@]4(C)CC[C@]23C)[C@@]1(C)C(=O)O`
Result: > 40 µM

Q: // IC50 lookup, key: `CC1(C)CC[C@]2(CO)CC[C@]3(C)C(=CC[C@@H]4[C@@]5(C)CC[C@H](O)C(C)(C)[C@@H]5CC[C@]43C)[C@@H]2C1`
Result: > 40 µM

---

Molecular target: UniProt:O15296
Sequence (whole entry): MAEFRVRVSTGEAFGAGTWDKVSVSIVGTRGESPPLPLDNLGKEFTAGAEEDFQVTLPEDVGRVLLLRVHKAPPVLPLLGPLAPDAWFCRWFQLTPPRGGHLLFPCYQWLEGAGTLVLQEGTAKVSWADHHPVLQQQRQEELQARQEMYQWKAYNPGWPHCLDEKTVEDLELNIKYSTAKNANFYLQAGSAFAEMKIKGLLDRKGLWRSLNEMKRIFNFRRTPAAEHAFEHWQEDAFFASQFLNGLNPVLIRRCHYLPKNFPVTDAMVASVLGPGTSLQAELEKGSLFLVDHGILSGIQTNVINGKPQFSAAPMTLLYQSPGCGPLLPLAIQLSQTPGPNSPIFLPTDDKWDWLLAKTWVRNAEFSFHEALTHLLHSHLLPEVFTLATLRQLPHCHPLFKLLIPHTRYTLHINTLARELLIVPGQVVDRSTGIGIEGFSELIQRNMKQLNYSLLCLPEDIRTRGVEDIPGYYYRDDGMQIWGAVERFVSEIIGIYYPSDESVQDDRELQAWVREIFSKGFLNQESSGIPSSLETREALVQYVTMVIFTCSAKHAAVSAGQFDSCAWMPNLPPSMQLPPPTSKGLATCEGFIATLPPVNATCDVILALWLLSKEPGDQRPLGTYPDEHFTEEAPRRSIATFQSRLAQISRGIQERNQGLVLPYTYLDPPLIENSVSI
Test: Inhibition of human recombinant N-terminal His-tagged 15-LOX2 expressed in Escherichia coli assessed as residual activity at 42 uM using arachidonic acid as substrate preincubated for 5 mins followed by substrate addition measured after 20 mins in dark by ferric ion oxidation-xylenol orange assay relative to control
experimental.endpoint: Activity (%)
Numeric only. Scale: %

- compound: "C[C@H]1[C@H](C)CC[C@]2(CO)CC[C@]3(C)C(=CC[C@@H]4[C@@]5(C)CC[C@H](O)C(C)(C)[C@@H]5CC[C@]43C)[C@H]12 [UVAOL]"
  units.label: "%"
  Activity: 70.2

Q: // Activity lookup, key: CC1(C)CC[C@]2(C(=O)O)CC[C@]3(C)C(=CC[C@@H]4[C@@]5(C)CC[C@H](O)C(C)(C)[C@@H]5CC[C@]43C)[C@@H]2C1 [OLEANOLIC_ACID]
Result: 100

Q: // Activity lookup, key: CC1(C)CC[C@]2(C)CC[C@]3(C)C(=CC[C@@H]4[C@@]5(C)CC[C@H](O)C(C)(C)[C@@H]5CC[C@]43C)[C@@H]2C1 [beta-AMYRIN]
Result: 97.2

Q: // Activity lookup, key: C[C@H]1[C@H](C)CC[C@]2(C)CC[C@]3(C)C(=CC[C@@H]4[C@@]5(C)CC[C@@H](O)[C@](C)(C(=O)O)[C@@H]5CC[C@]43C)[C@H]12 [BOSWELLIC ACID]
Result: 100

Q: // Activity lookup, key: `CC1(C)CC[C@]2(C(=O)O)CC[C@]3(C)C(=CC[C@@H]4[C@@]5(C)CC[C@H](O)[C@@](C)(C(=O)O)[C@@H]5CC[C@]43C)[C@@H]2C1`
Result: 100

---

molecular target: Polyunsaturated fatty acid 5-lipoxygenase (Homo sapiens, UniProt P09917); experiment: Inhibition of human recombinant 5-LOX expressed in insect cells assessed as decrease in production of 5-HPETE and 5-HETE using arachidonic acid as substrate preincubated for 5 mins followed by substrate addition measured after 20 mins in dark by ferric ion oxidation-xylenol orange method; details: read-out: IC50
pIC50: −log10 of the molar value.
experimental.endpoint: pIC50

Please review the following examples before continuing.
- item.smiles: "CC1(C)CC[C@]2(C(=O)O)CC[C@]3(C)C(=CC[C@@H]4[C@@]5(C)C[C@H](O)[C@H](O)[C@@](C)(CO)[C@@H]5CC[C@]43C)[C@@H]2C1"
  pIC50: "< 4.40"
- item.smiles: "CC1(C)CC[C@]2(C(=O)O)CC[C@]3(C)C(=CC[C@@H]4[C@@]5(C)CC[C@H](O)[C@@](C)(CO)[C@@H]5CC[C@]43C)[C@@H]2C1"
  pIC50: "< 4.40"

Q: Query the reported pIC50 for Polyunsaturated fatty acid 5-lipoxygenase (Homo sapiens, UniProt P09917); item: `CC1(C)[C@@H](O)CC[C@]2(C)[C@H]3CC=C4[C@@H]5C[C@@](C)(CO)CC[C@]5(C)CC[C@@]4(C)[C@]3(C)CC[C@@H]12`
Result: 4.50
